target: CDK9 (Homo sapiens); construct: endogenous in cells; host or cells: MDA-MB-231; assay: CDK protein degradation activity (Western blotting), CDK9; assay type: cell-based; conditions: MDA-MB-231 cells, 10 μM, 16 hours, Western blot
assay.readout: Enzyme degradation CDK9 (% remaining) @ 10 μM

Some solved entries appear below for comparison.
O=C1CC[C@@H](c2ccc(OCC(=O)N3CCC(CN4CCN(c5ccc(Nc6ncnc7c6ncn7[C@H]6C[C@@H](NC(=O)c7c(Cl)cccc7Cl)C6)cc5)CC4)CC3)cc2)C(=O)N1 [Compound 437]	10/10/10%
Cc1cccc(C(=O)N[C@H]2C[C@@H](n3cnc4c(Nc5ccc(N6CCN(CC7CCN(C(=O)COc8cccc9c8C(=O)N(C8CCC(=O)NC8=O)C9=O)CC7)CC6)cc5)ncnc43)C2)n1 (stereo partly drawn) [Compound 91]	0/0/0%
O=C1CCC(N2C(=O)c3ccc(N4CCC(C(=O)N5CCC(CN6CCN(c7ccc(Nc8ncnc9c8ncn9[C@H]8C[C@@H](NC(=O)c9cccc(C(F)(F)F)n9)C8)cc7)CC6)CC5)CC4)cc3C2=O)C(=O)N1 (stereo partly drawn) [Compound 470]	0/0/0%
O=C1CC[C@H](n2nnc3ccc(N4CCC(CN5CCN(c6ccc(Nc7ncnc8c7ncn8C7CC(NC(=O)c8c(Cl)cccc8Cl)C7)cc6)CC5)CC4)cc3c2=O)C(=O)N1 (stereo partly drawn) [Compound 371]	0/0/0%
Cc1cccc(C(=O)N[C@H]2C[C@@H](n3cnc4c(Nc5ccc(N6CCN(CC7CCN(C(=O)C8CN(c9ccc%10c(c9)C(=O)N([C@H]9CCC(=O)NC9=O)C%10=O)C8)CC7)CC6)cc5C)ncnc43)C2)n1 [Compound 448]	20/20/20%

// Enzyme degradation CDK9 (% remaining) @ 10 μM lookup, compound = O=C1CC[C@H](N2C(=O)c3ccc(N4CC(C(=O)N5CCC(CN6CCC(CCNc7ncnc8c7ncn8[C@H]7C[C@@H](NC(=O)Cc8ccccc8)C7)CC6)CC5)C4)cc3C2=O)C(=O)N1 [Compound 411] , result: 10/10/10%

// Enzyme degradation CDK9 (% remaining) @ 10 μM lookup, compound = O=C1CCC(N2C(=O)c3ccc(N4CCC(C(=O)N5CCC(CN6CCN(c7ccc(Nc8ncnc9c8ncn9[C@H]8C[C@@H](NC(=O)c9cccc(Cl)n9)C8)cc7)CC6)CC5)CC4)cc3C2=O)C(=O)N1 (stereo partly drawn) [Compound 452] , result: 0/0/0%

// Enzyme degradation CDK9 (% remaining) @ 10 μM lookup, compound = O=C1CC[C@H](N2C(=O)c3cccc(NCC(=O)N4CCC(CN5CCN(c6ccc(Nc7ncnc8c7ncn8C7CC(NC(=O)c8cccc(Cl)n8)C7)cc6)CC5)CC4)c3C2=O)C(=O)N1 (stereo partly drawn) [Compound 419] , result: 0/0/0%

// Enzyme degradation CDK9 (% remaining) @ 10 μM lookup, compound = Cc1cccc(C(=O)NC2CC(n3cnc4c(Nc5ccc(N6CCN(CCC7CCN(C(=O)C8CN(c9ccc%10c(c9)C(=O)N([C@H]9CCC(=O)NC9=O)C%10=O)C8)CC7)CC6)cc5)ncnc43)C2)n1 (stereo partly drawn) [Compound 388] , result: 0/0/0%

====

biological target: CDK2 (Homo sapiens, UniProt P24941); construct: endogenous in cells; host or cells: MDA-MB-231; test: CDK protein degradation activity (Western blotting), CDK2; type: cell-based; settings: MDA-MB-231 cells, 0.1 μM, 16 hours, Western blot
assay.readout: Enzyme degradation CDK2 (% remaining) @ 0.1 μM

Some solved entries appear below for comparison.
Cc1cccc(C(=O)N[C@H]2C[C@@H](n3cnc4c(Nc5ccc(N6CCN(CC7CCN(c8ccc9c(c8)C(=O)N([C@H]8CCC(=O)NC8=O)C9=O)CC7)CC6)cc5)ncnc43)C2)n1	20/20/20%
COc1ccc(C(=O)NC[C@H]2CC[C@H](CN3CCN(c4ccc(Nc5ncnc6c5ncn6[C@H]5C[C@@H](NC(=O)Cc6ccccc6)C5)cc4)CC3)CC2)cc1N1CCC(=O)NC1=O	0/0/0%
O=C1CCC(N2C(=O)c3ccc(N4CCC(C(=O)N5CCC(CN6CCN(c7ccc(Nc8ncnc9c8ncn9[C@H]8C[C@@H](NC(=O)c9cccc(Cl)n9)C8)cc7)CC6)CC5)CC4)cc3C2=O)C(=O)N1 (some centres unmarked)	30/30/30%
O=C1CC[C@H](N2C(=O)c3cc(F)c(N4CCC(CN5CCN(c6ccc(Nc7ncnc8c7ncn8C7CC(NC(=O)c8cccc(C(F)(F)F)n8)C7)cc6)CC5)CC4)cc3C2=O)C(=O)N1 (some centres unmarked)	20/20/20%
O=C1CC[C@H](N2C(=O)c3cccc(NCC(=O)N4CCC(CN5CCN(c6ccc(Nc7ncnc8c7ncn8C7CC(NC(=O)c8cccc(F)n8)C7)cc6)CC5)CC4)c3C2=O)C(=O)N1 (some centres unmarked)	10/10/10%
O=C1CC[C@H](N2C(=O)c3ccc(NCC(=O)N4CCC(CN5CCN(c6ccc(Nc7ncnc8c7ncn8C7CC(NC(=O)c8c(Cl)cccc8Cl)C7)cc6)CC5)CC4)cc3C2=O)C(=O)N1 (some centres unmarked)	30/30/30%
O=C1CC[C@H](N2C(=O)c3ccc(N4CCN(CC5CCN(c6ccc(Nc7ncnc8c7ncn8[C@H]7C[C@@H](NC(=O)c8c(Cl)cccc8Cl)C7)cc6)CC5)CC4)cc3C2=O)C(=O)N1	10/10/10%

Next molecule, Enzyme degradation CDK2 (% remaining) @ 0.1 μM to be filled in.
// Enzyme degradation CDK2 (% remaining) @ 0.1 μM lookup, molecule = O=C1CC[C@H](N2C(=O)c3cc(F)c(N4CCC(CCN5CCN(c6ccc(Nc7ncnc8c7ncn8C7CC(NC(=O)Cc8ccccc8)C7)cc6)CC5)CC4)cc3C2=O)C(=O)N1 (some centres unmarked) , result: 60%

====

Reported values of Enzyme degradation CDK9 (% remaining) @ 10 μM for individual entries
target: CDK9 (Homo sapiens, UniProt P50750); construct: endogenous in cells; host or cells: MDA-MB-231; assay: CDK protein degradation activity (Western blotting), CDK9; format: cell-based; details: MDA-MB-231 cells, 10 μM, 16 hours, Western blot
Sequence (P50750 whole entry): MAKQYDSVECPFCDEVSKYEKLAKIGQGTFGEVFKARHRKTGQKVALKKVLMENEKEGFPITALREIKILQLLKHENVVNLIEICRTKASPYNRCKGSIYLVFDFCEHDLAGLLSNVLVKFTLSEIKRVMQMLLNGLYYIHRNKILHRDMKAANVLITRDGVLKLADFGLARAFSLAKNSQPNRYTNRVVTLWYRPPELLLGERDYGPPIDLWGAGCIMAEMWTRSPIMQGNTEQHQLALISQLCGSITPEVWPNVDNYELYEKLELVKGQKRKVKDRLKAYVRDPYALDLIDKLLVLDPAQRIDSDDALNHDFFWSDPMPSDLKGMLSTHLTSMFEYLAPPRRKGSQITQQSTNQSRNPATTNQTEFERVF

Record for O=C1CC[C@@H](c2cccc(OCC(=O)N3CCC4(CC3)CC(N3CCN(c5ccc(Nc6ncnc7c6ncn7C6CC(NC(=O)Cc7ccccc7)C6)cc5)CC3)C4)c2)C(=O)N1 (stereo partly drawn) under target or system CDK9 (Homo sapiens, UniProt P50750): Enzyme degradation CDK9 (% remaining) @ 10 μM reported as 0/0/0%

Record for Cc1cccc(C(=O)NC2CC(n3cnc4c(Nc5ccc(N6CCN(CC7CCN(c8ccc9nnn([C@H]%10CCC(=O)NC%10=O)c(=O)c9c8)CC7)CC6)cc5)ncnc43)C2)n1 (stereo partly drawn) under target or system CDK9 (Homo sapiens, UniProt P50750): Enzyme degradation CDK9 (% remaining) @ 10 μM reported as 0/0/0%

Record for Cc1cccc(C(=O)NC2CC(n3cnc4c(Nc5ccc(N6CCN(CC7CCN(C(=O)CNc8cccc9c8C(=O)N([C@H]8CCC(=O)NC8=O)C9=O)CC7)CC6)cc5)ncnc43)C2)n1 (stereo partly drawn) under target or system CDK9 (Homo sapiens, UniProt P50750): Enzyme degradation CDK9 (% remaining) @ 10 μM reported as 0/0/0%

====

target: CDK2 (Homo sapiens, UniProt P24941); construct: endogenous in cells; host or cells: MDA-MB-231; test: CDK protein degradation activity (Western blotting), CDK2; assay type: cell-based; conditions: MDA-MB-231 cells, 1 μM, 16 hours, Western blot
assay.readout: Enzyme degradation CDK2 (% remaining) @ 1 μM

N#Cc1cccc(C(=O)N[C@H]2C[C@@H](n3cnc4c(Nc5ccc(N6CCN(CC7CCN(c8ccc9nnn([C@H]%10CCC(=O)NC%10=O)c(=O)c9c8)CC7)CC6)cc5)ncnc43)C2)n1 (racemic) [Compound 418]	10/10/10%
O=C1CCC(N2C(=O)c3cccc(NCC(=O)N4CC(N5CCC6(CC5)CC(N5CCN(c7ccc(Nc8ncnc9c8ncn9[C@H]8C[C@@H](NC(=O)Cc9ccccc9)C8)cc7)CC5)C6)C4)c3C2=O)C(=O)N1 (stereo partly shown) [Compound 277]	30/30/30%
O=C1CC[C@H](N2C(=O)c3ccc(NCC(=O)N4CCC(OCCN5CCN(c6ccc(Nc7ncnc8c7ncn8[C@H]7C[C@@H](NC(=O)Cc8ccccc8)C7)cc6)CC5)CC4)cc3C2=O)C(=O)N1 [Compound 248]	50/50/50%
O=C1CC[C@H](N2C(=O)c3ccc(OCC(=O)N4CCC(CN5CCN(c6ccc(Nc7ncnc8c7ncn8[C@H]7C[C@@H](NC(=O)c8c(Cl)cccc8Cl)C7)cc6)CC5)CC4)cc3C2=O)C(=O)N1 [Compound 162]	50/50/50%
O=C1CC[C@H](N2C(=O)c3ccc(N4CCN(CC5CCN(c6ccc(Nc7ncnc8c7ncn8[C@H]7C[C@@H](NC(=O)c8c(Cl)cccc8Cl)C7)cc6)CC5)CC4)cc3C2=O)C(=O)N1 [Compound 300]	10/10/10%

// Enzyme degradation CDK2 (% remaining) @ 1 μM lookup, compound = Cc1cccc(C(=O)N[C@H]2C[C@@H](n3cnc4c(Nc5ccc(N6CCN(CC7CCN(c8ccc9c(c8)C(=O)N([C@H]8CCC(=O)NC8=O)C9=O)CC7)CC6)cc5)ncnc43)C2)n1 [Compound 88] , result: 20/20/20%

// Enzyme degradation CDK2 (% remaining) @ 1 μM lookup, compound = O=C1CC[C@@H](c2ccc(OCC(=O)N3CCN(CCCN4CCN(c5ccc(Nc6ncnc7c6ncn7C6CC(NC(=O)Cc7ccccc7)C6)cc5)CC4)CC3)cc2)C(=O)N1 (stereo partly shown) [Compound 236] , result: 50/50/50%
